system: CCRF-CEM leukemia; assay: NCI-60 one-dose screen, 48 h; settings: 10 µM unless noted
About 83,000 compounds went through this panel and 20% of them were active in at least one assay; those are over-represented in the sample as a whole. Calls of active or inactive are those of the source. How the source made its calls: active means growth percent below 10; inactive means the rest.
Tick one outcome: true (1) for active, false (0) for inactive

| compound | class_label |
| --- | --- |
| CCCn1cc(-c2nc(Nc3ccc(C(=O)NCCCCNc4cccc5c4C(=O)N(C4CCC(=O)NC4=O)C5=O)cc3)nc3[nH]ccc23)cn1 (stereo not drawn) | true (1) |
| CC(C)c1sc(NC(=O)c2cc(NC(=O)c3cc(NC(=O)c4nccn4C)cn3C)cn2C)nc1C(=O)NCCCN(C)C | false (0) |
| COc1cc(C2CC(c3cc(OC)c(OC)c(OC)c3)=NN2c2ccccc2)ccc1OCc1ccc(C)cc1 (stereo not drawn) | false (0) |
| CN(C)CCOc1ccc(C(=O)C2[C@H](c3ccc(Cl)cc3)[C@@H](c3ccccc3)NC23C(=O)Nc2ccc(Br)cc23)cc1 (stereo partly drawn) | false (0) |
| COc1ccc(C(=O)/C=C/c2ccc(OCc3ccc(F)cc3)c(OC)c2)cc1OC | true (1) |

Just curious, what result did COc1ccc(C2=NN(c3ccccc3)C(c3ccc(OC)c(OCc4ccccc4)c3)C2)cc1OC (stereo not drawn) get here?
false (0)

Just curious, what result did `O=C1NC(=O)/C(=C/c2ccccc2OCc2cc3ccccc3nc2Cl)S1` get here?
false (0)

Just curious, what result did C=C1CCC2C3(C)COC(c4ccc(F)cc4)OC3CCC2(C)C1C/C=C1/C(=O)OCC1O (stereo not drawn) get here?
false (0)

Just curious, what result did `Cn1nc(C(F)(F)F)cc1-c1cc(Cl)c(COc2ccc(Cl)cc2)c(-c2ccc(Cl)c(C(F)(F)F)c2)c1O` get here?
true (1)

Just curious, what result did COc1cc(C2CC(c3cc(OC)c(OC)c(OC)c3)=Nc3c(N)nc(N)nc3N2)ccc1Oc1nc(NCCO)nc(N2CCOCC2)n1 (stereo not drawn) get here?
false (0)

====

test system: SNB-75 CNS; test: NCI-60 one-dose screen, 48 h (100 = growth as untreated, 0 = no growth, -100 = all killed); conditions: 10 µM unless noted
This is part of a sample that, as a whole, favours compounds with a hit. Of some 83,000 tested, about 20% had one in any assay.
reported_metric: growth (%)
Expressed in %, but write only the number.

Sample records with growth:
| molecule | subject_of_test | output_unit | growth |
| --- | --- | --- | --- |
| Cc1cc(N=C2NC(=O)CS2)n[nH]1 | SNB-75 CNS | % | 107 |
| Cc1ccc(-c2nc(Nc3ccccc3S(N)(=O)=O)c3ccccc3n2)cc1 | SNB-75 CNS | % | 91 |
| O=C(Nc1cccc(-n2cnc3cc(-c4ccc(O)cc4)ccc32)c1)C1CC1 | SNB-75 CNS | % | -5.51 |
| C#CCOc1cc(N(CC)CC)ccc1C(C(=O)NC(C)(C)C)N(C(=O)C1CCc2cc(F)ccc2O1)c1ccccc1Br (centres undefined) | SNB-75 CNS | % | 97.5 |
| CN(C)c1ccnc(CNCCSC2(c3ccc(C(F)(F)F)cc3)c3ccccc3C=Cc3ccccc32)c1 | SNB-75 CNS | % | -6.52 |
| COc1ccc2oc3c4[nH]c5ccccc5c4c4c(c3c2c1)C(=O)N(C(=O)OC(C)(C)C)C4=O | SNB-75 CNS | % | -3.78 |

Answer with the recorded growth for the molecule listed here: `Cc1ccc(NC(=O)CN2CCN(c3ncnc4c3cnn4-c3ccccc3)CC2)cc1`
103

Answer with the recorded growth for the molecule listed here: COc1cc(C2CC(c3cc(OC)c(OC)c(OC)c3)=NN2c2ccccc2)ccc1OCc1ccc(C)cc1 (centres undefined)
84.1

Answer with the recorded growth for the molecule listed here: `COc1ccc(C(=O)/C=C/c2ccc3ccccc3c2)cc1S(N)(=O)=O`
-15.5
